Provide the recorded kon for the entries that follow.
molecular target: T1, biotinylated CD3 epsilon:delta heterodimer protein (Amsbio AMS.CDD-H52WO) (Homo sapiens (Human), UniProt P07766 23-126; P04234 22-105); experiment: BLI (Octet), CD3 on SA sensor, Fab analyte;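 note: biolayer interferometry with biotinylated CD3 epsilon:delta captured on streptavidin sensors, Fab analyte at several concentrations up to 300 nM, 100 s association then 300 s dissociation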
T1 construct: also called CD3 heterodimer
One number for each entry, in M⁻¹ s⁻¹.

huSP34.9.4 Fab-HF (Fab, V domains shown, also called HC9+LC4) VH: EVQLVESGGGLVQPGGSLRLSCAASGFTFSDYAMNWVRQAPGKGLEWVGRTRSKYNSYATYYAASVKGRFTISRDDSKNSLYLQMNSLKTEDTAVYYCVRHGNFGNSYVSWFAVWGQGTLVTVSS VL: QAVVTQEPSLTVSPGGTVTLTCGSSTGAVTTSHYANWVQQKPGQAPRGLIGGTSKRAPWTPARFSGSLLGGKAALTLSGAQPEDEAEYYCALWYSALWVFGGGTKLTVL	40900

As a next step, examine the binder that follows.
input: Which kon reading was recorded for the binder huSP34.7.5 Fab-HF (Fab, V domains shown, also called HC7+LC5) VH: EVQLVESGGGLVQPGGSLRLSCAASGFTFSDYAMNWVRQAPGKGLEWVGRTRSKYNNYATYYAASVKGRFTISRDDSKNSLYLQMNSLKTEDTAVYYCVRHGNFGNSYVSWFAVWGQGTLVTVSS VL: QAVVTQEPSLTVSPGGTVTLTCGSSTGAVTTGHYANWVQQKPGQAPRGLIGGTSNRAPWTPARFSGSLLGGKAALTLSGAQPEDEAEYYCALWYSARWVFGGGTKLTVL ?
output: 307000
